Target: Apoptotic protease-activating factor 1 (Homo sapiens)
Assay: enhancers of Apaf-1-driven caspase-3 activation – biochemical, DEVD-Rh110 fluorescence, uHTS, primary screen (AID 489031)
Details: Apaf-1 apoptosome caspase-3 activation, at 20 µM, active compounds read low
Hit rate of the full screen: of about 330,000 compounds, about 1,000 (0.3%) were called active. This excerpt belongs to a sample that is enriched for actives.
activity change, negative = activation strictly less than 40% = YES. Otherwise NO.

Check if activity change, negative = activation falls below 40% for CC(=O)N(C1=C(Cl)C(=O)c2ccccc2C1=O)c1ccc(C(=O)O)cc1 . NO

Check if activity change, negative = activation falls below 40% for CC(C)n1cnc2c(NCc3ccccc3)cc(OCC3CCN(C)CC3)cc21 . NO

Check if activity change, negative = activation falls below 40% for OC(CNCC1CCCO1)Cn1c2ccc(Br)cc2c2cc(Br)ccc21 (stereo unspecified) . NO

Check if activity change, negative = activation falls below 40% for COC(=O)[C@H]1[C@H]2C[C@H]3c4[nH]c5ccccc5c4CCN3C[C@@H]2CC[C@@H]1O . YES

Check if activity change, negative = activation falls below 40% for Cc1ccc2nc(N3CCN(C(=O)c4ccco4)CC3)sc2c1 . NO

Check if activity change, negative = activation falls below 40% for CC(C)c1ccccc1OCC(O)CN(CC(O)COc1cccc2ccccc12)C(C)C (stereo unspecified) . NO

----------
Target: Apoptotic protease-activating factor 1 (Homo sapiens) (UniProt O14727)
Sequence (O14727 whole entry, looked up): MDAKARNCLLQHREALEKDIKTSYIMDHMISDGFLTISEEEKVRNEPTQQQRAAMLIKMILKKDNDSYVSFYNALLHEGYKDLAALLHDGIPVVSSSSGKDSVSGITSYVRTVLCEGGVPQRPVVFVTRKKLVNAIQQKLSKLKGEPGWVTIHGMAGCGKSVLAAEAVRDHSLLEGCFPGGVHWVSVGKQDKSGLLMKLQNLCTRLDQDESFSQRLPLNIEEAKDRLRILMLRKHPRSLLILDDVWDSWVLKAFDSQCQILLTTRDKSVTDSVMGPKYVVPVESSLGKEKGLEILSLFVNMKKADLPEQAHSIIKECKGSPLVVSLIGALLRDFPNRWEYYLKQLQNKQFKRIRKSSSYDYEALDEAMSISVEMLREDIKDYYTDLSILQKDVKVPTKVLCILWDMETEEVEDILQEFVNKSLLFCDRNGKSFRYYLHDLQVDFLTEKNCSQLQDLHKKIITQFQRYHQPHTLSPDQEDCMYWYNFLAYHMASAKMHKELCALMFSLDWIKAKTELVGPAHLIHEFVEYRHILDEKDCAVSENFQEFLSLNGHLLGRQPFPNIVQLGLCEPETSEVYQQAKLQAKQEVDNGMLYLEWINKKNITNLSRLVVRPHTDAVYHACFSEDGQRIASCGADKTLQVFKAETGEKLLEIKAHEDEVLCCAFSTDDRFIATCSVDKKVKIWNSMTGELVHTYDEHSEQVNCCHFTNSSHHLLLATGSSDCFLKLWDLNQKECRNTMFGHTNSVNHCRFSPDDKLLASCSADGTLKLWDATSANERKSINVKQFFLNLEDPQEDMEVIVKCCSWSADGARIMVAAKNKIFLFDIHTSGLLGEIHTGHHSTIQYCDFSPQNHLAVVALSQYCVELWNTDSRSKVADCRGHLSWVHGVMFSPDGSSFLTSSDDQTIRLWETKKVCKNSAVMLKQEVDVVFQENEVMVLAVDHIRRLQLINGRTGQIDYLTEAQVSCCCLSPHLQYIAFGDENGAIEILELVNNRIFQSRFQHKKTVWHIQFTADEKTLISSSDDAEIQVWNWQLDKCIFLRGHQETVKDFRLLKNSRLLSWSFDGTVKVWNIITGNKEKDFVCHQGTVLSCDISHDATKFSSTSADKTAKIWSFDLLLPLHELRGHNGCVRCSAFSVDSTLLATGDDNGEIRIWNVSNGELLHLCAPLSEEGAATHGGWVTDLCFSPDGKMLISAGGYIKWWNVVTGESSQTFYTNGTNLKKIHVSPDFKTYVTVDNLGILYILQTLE
Experiment: enhancers of Apaf-1-driven caspase-3 activation – biochemical, DEVD-Rh110 fluorescence, uHTS, primary screen (AID 489031)
Conditions: Apaf-1 apoptosome caspase-3 activation, at 20 µM, active compounds read low
In all, about 330,000 compounds went through this assay and about 1,000 (0.3%) were called active. The sample as a whole holds a higher share of actives than the screen did.
Assignment: determine reported activity change, negative = activation for the given compounds.
Return type: number; implicit unit %.

Reported activity change, negative = activation for Apoptotic protease-activating factor 1 (Homo sapiens) (UniProt O14727), given O=C1Nc2ccc([N+](=O)[O-])cc2C1=Nc1cccc(CO)c1 ? 41.2

Reported activity change, negative = activation for Apoptotic protease-activating factor 1 (Homo sapiens) (UniProt O14727), given C=CC1=C(C(=O)O)N2C(=O)[C@@H](NC(=O)/C(=N/OCC(=O)O)c3csc(N)n3)[C@H]2SC1 ? -112

Reported activity change, negative = activation for Apoptotic protease-activating factor 1 (Homo sapiens) (UniProt O14727), given COc1ccc(Cl)cc1NC(=O)CCS(=O)(=O)c1ccc(Br)cc1 ? -182

Reported activity change, negative = activation for Apoptotic protease-activating factor 1 (Homo sapiens) (UniProt O14727), given C=CC1=C(C(=O)O)N2C(=O)[C@@H](NC(=O)/C(=N\OCC(=O)O)c3csc(N)n3)[C@H]2SC1 ? -78

Reported activity change, negative = activation for Apoptotic protease-activating factor 1 (Homo sapiens) (UniProt O14727), given CC(=O)Nc1ccc(Nc2cc(C)nc(Nc3ccc(NC(C)=O)cc3)n2)cc1 ? 46.2

Reported activity change, negative = activation for Apoptotic protease-activating factor 1 (Homo sapiens) (UniProt O14727), given C#CCOCCOCCOCCNc1nc(N2CCN(C(=O)CCCCCCCCCCNC(=O)Cn3cc(CCCCCN)nn3)CC2)nc(N2CCN(C(=O)CCCCCCCCCCNC(=O)[C@H](CO)n3cc(CCCSC)nn3)CC2)n1 ? 60.7

Reported activity change, negative = activation for Apoptotic protease-activating factor 1 (Homo sapiens) (UniProt O14727), given N#CC1(C#N)C(C(=O)C23CC4CC(CC(C4)C2)C3)C12CCOCC2 (centres undefined) ? -214

Reported activity change, negative = activation for Apoptotic protease-activating factor 1 (Homo sapiens) (UniProt O14727), given COc1ccc2sc(-c3ccccc3OC)c(-c3ccc(OCCN4CCCC4)cc3)c2c1 ? 73.4

Reported activity change, negative = activation for Apoptotic protease-activating factor 1 (Homo sapiens) (UniProt O14727), given COc1ccc(-c2nc3cc(C)ccn3c2NC2CCCCC2)cc1SC1CCCCC1 ? 48.4

----------
Biological target: Apoptotic protease-activating factor 1 (Homo sapiens) (UniProt O14727)
Assay: enhancers of Apaf-1-driven caspase-3 activation – biochemical, DEVD-Rh110 fluorescence, uHTS, primary screen (AID 489031)
Conditions: Apaf-1 apoptosome caspase-3 activation, at 20 µM
The whole screen tested about 330,000 compounds, of which about 1,000 (0.3%) were called active.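 How the source made its calls: active means activity change at or below -40% at 20 µM; inactive means the rest.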 Shown is part of a subset that was picked to be rich in actives.
One label from this list, please: active, inactive

// return assay outcome for CCOC(=O)C1CCN(C(=O)c2cccc(S(=O)(=O)N(CC)c3ccccc3)c2)CC1 inactive

// return assay outcome for O=C(Cc1cc(=O)[nH][nH]1)N/N=C/c1ccccc1[N+](=O)[O-] inactive

// return assay outcome for C[C@@H](CN1CCC[C@H]1CN1C(N)=NC[C@@H]1Cc1ccccc1)N1C[C@@H](Cc2ccccc2)N(CCCC2CCCC2)C1=N inactive

// return assay outcome for CCN1C(=O)c2cccc3c(N)ccc1c23 inactive

// return assay outcome for CC(=O)NC(=S)NNC(=O)c1ccc(Br)cc1 active

// return assay outcome for Clc1cccc(-c2nc3nc4ccccc4nc3n2Cc2ccco2)c1 active

----------
Assignment: determine reported activity change, negative = activation for the given compounds.
Target: Apoptotic protease-activating factor 1 (Homo sapiens)
Test: enhancers of Apaf-1-driven caspase-3 activation – biochemical, DEVD-Rh110 fluorescence, uHTS, primary screen (AID 489031)
Details: Apaf-1 apoptosome caspase-3 activation, at 20 µM, active compounds read low
The campaign covered roughly 330,000 compounds. About 1,000 (0.3%) were called active. Shown is part of a subset that was picked to be rich in actives.
Return type: number; implicit unit %.

// activity change, negative = activation lookup, key: Oc1ccc(N=Cc2sc3ccccc3c2Cl)cc1 64.8

// activity change, negative = activation lookup, key: COc1ccc(S(=O)(=O)N2CCCCC2)cc1NC(=O)c1cc([N+](=O)[O-])ccc1N1CCOCC1 -42.8

// activity change, negative = activation lookup, key: CCOc1ccc(N=C2NC(=O)S/C2=C\c2ccc(O)cc2)cc1 -72

// activity change, negative = activation lookup, key: C=CCNC(=O)c1ccc(C)c(Br)c1 -44.1

// activity change, negative = activation lookup, key: Oc1ccc(N=Cc2c(O)ccc3ccccc23)cc1 87.2

// activity change, negative = activation lookup, key: C=CCC[C@H](Cc1ccc(F)cc1)C(=O)OC[C@@H](NC(=O)[C@@H](CC=C)CC(=O)N[C@H](CO)Cc1ccccc1)C(C)(C)C 40.6

// activity change, negative = activation lookup, key: CCn1cc(CN2CCC(C(=O)Nc3cccc(-c4cccc(Cl)c4)c3)CC2)c(C)n1 40.5

// activity change, negative = activation lookup, key: C=C(C)C(=O)Nc1cccc(C2=NOC3(C2)C[C@H](C(N)=O)N(C(=O)C(c2ccccc2)c2ccccc2)C3)c1 (stereo not given in full) -78.2

// activity change, negative = activation lookup, key: CC(=O)CCC(=O)c1ccc2ccccc2c1 -178

// activity change, negative = activation lookup, key: Cc1[nH][nH]c(=O)c1C(c1ccc(-c2ccc(Cl)cc2)o1)c1c(C)[nH][nH]c1=O 85.8

----------
Biological target: Apoptotic protease-activating factor 1 (Homo sapiens)
Assay: enhancers of Apaf-1-driven caspase-3 activation – biochemical, DEVD-Rh110 fluorescence, uHTS, primary screen (AID 489031)
Details: Apaf-1 apoptosome caspase-3 activation, at 20 µM, active compounds read low
The campaign covered roughly 330,000 compounds. About 1,000 (0.3%) were called active. The sample as a whole holds a higher share of actives than the screen did.
Assignment: determine reported activity change, negative = activation for the given compounds.

// activity change, negative = activation lookup, key: CN(CCOc1ccc(CC2SC(=O)NC2=O)cc1)c1ccccn1 (stereo unspecified) -0.067% (inactive)

// activity change, negative = activation lookup, key: NC[C@H](Cc1ccccc1)NCCc1cc(C(F)(F)F)cc(C(F)(F)F)c1 60.8% (inactive)

// activity change, negative = activation lookup, key: C=CCn1c(N)c(C(=O)OCC(C)C)c2nc3ccccc3nc21 54.1% (inactive)

// activity change, negative = activation lookup, key: CC(C)N1CCC(NC(=O)Nc2ccccc2)CC1 -331% (active)

// activity change, negative = activation lookup, key: Cc1cc(NC(=O)c2cccc(N3C(=O)CCC3=O)c2)no1 -110% (active)

// activity change, negative = activation lookup, key: CN(C)CCCN(C(=O)c1ccc(S(=O)(=O)N2CCCCCC2)cc1)c1nc2ccc(Br)cc2s1 60.4% (inactive)

----------
Target: Apoptotic protease-activating factor 1 (Homo sapiens) (UniProt O14727)
Assay: enhancers of Apaf-1-driven caspase-3 activation – biochemical, DEVD-Rh110 fluorescence, uHTS, primary screen (AID 489031)
Conditions: Apaf-1 apoptosome caspase-3 activation, at 20 µM, active compounds read low
In all, about 330,000 compounds went through this assay and about 1,000 (0.3%) were called active. Shown is part of a subset that was picked to be rich in actives.
testReadout: activity change, negative = activation (%)
Return type: number; implicit unit %.

Reported activity change, negative = activation for Apoptotic protease-activating factor 1 (Homo sapiens) (UniProt O14727), given CN1CC(=O)N=C1N ? 3.64

Reported activity change, negative = activation for Apoptotic protease-activating factor 1 (Homo sapiens) (UniProt O14727), given CCOc1c(Br)cc(/C=C2\C(=O)N(CCC#N)N=C2C)cc1OC ? 75.9

Reported activity change, negative = activation for Apoptotic protease-activating factor 1 (Homo sapiens) (UniProt O14727), given COCCn1nnnc1C(c1cc2ccc(OC)cc2[nH]c1=O)N1CCc2ccccc2C1 (stereo unspecified) ? 56.8

Reported activity change, negative = activation for Apoptotic protease-activating factor 1 (Homo sapiens) (UniProt O14727), given CC(C)OCCCNC(=S)N1CCC(C(=O)c2ccc3c(c2)OCCO3)CC1 ? -164

Reported activity change, negative = activation for Apoptotic protease-activating factor 1 (Homo sapiens) (UniProt O14727), given Cc1[nH]n(-c2ccccc2)c(=O)c1/C=N/NC(=O)c1ccoc1C ? 61.5

Reported activity change, negative = activation for Apoptotic protease-activating factor 1 (Homo sapiens) (UniProt O14727), given COc1ccc(C2c3ccc(O)cc3Oc3ncn(CCCO)c(=N)c32)cc1OC (stereo unspecified) ? -43.4

Reported activity change, negative = activation for Apoptotic protease-activating factor 1 (Homo sapiens) (UniProt O14727), given COc1ccccc1OCC(=O)Nc1c2c(nn1-c1ccc(F)cc1)CS(=O)(=O)C2 ? -88

Reported activity change, negative = activation for Apoptotic protease-activating factor 1 (Homo sapiens) (UniProt O14727), given Cc1cc2oc3ccc(NCCC4CCCN4C)cc3c(=O)c2cc1C (stereo unspecified) ? 46.9

Reported activity change, negative = activation for Apoptotic protease-activating factor 1 (Homo sapiens) (UniProt O14727), given Cc1nn(CC(=O)Nc2ccc(C#N)cc2)c(C)c1[N+](=O)[O-] ? -116

Reported activity change, negative = activation for Apoptotic protease-activating factor 1 (Homo sapiens) (UniProt O14727), given Cc1ccc(S(=O)(=O)N2CCOCC2)cc1C(=O)NC(=S)N(Cc1ccccc1)C(C)C ? -57.7

Reported activity change, negative = activation for Apoptotic protease-activating factor 1 (Homo sapiens) (UniProt O14727), given CCOC(=O)N1CCC(NC(=O)C(C)n2c3ccccc3c3cnn(C)c(=O)c32)CC1 (stereo unspecified) ? 44.6
